- Test system: K4 kissing-loop RNA reporter
- MEASUREMENT_PROTOCOL: apparent KD of K4 kissing-loop reporter; higher = weaker reporter binding
- ASSAY_CONTEXT: Eterna round: R107; input ligand: none
Note to self: values exactly at 300 nM are t. So apparent KD of K4 kissing-loop reporter at or above 300 nM is t, below is f.

Dear colleague, could you confirm whether ACGUAGUACGUAGGAUAUCAGAGAUCAGUUAGUGAGAUCGAGUGAUGUUCGAUCAUGUGUUCAUUUUGAGAAGGAUGUAGUAGGA [KL-SSFMN-B6] has apparent KD of K4 kissing-loop reporter at or above 300 nM?
t

Dear colleague, could you confirm whether UGUCAUUGGUCGGCCGCCACUAGAAGGUCAAAGACCAUGGAGUGAUGUUCUAAGACGAAAGUCACUAGGACCGGGACCGAUGACU [TrypBS 5 #SwitchBubble #K4Middle] has apparent KD of K4 kissing-loop reporter at or above 300 nM?
t

Dear colleague, could you confirm whether UCUUUAGUAUAUGAUACCAGCAGUGAGAGACAGGAAGUAUAGUGAUGUUAUAUGAGAGAAUGCCCUUGGCAGCGUGUGCGGUGGG [SSTheophylB.T] has apparent KD of K4 kissing-loop reporter at or above 300 nM?
f

Dear colleague, could you confirm whether GCAGACACGCAGUGAUGUUGCGAAACGGAAGGAGCGCGUGAAAACGCAGGUAGGUCGCCGACACAUUAAUUAUAAUUUUGUUUGC [Arginine A K4 15] has apparent KD of K4 kissing-loop reporter at or above 300 nM?
f

Dear colleague, could you confirm whether AGGGUUAAUUAGUCUUUUUUCACAUUAAGUCAGGAUAUCGUAUUUUCGAGAAGGGACACAUGCUAGUGAUGUUAGCUAUUUCCCA [#02 K4 FMN A Exclusion] has apparent KD of K4 kissing-loop reporter at or above 300 nM?
f

----------
- Test system: MS2 coat protein
- MEASUREMENT_PROTOCOL: apparent KD of MS2 coat protein; designed switch direction (-1 OFF switch, 1 ON switch): 1; higher = weaker reporter binding
- ASSAY_CONTEXT: input ligand: FMN 200 uM
For each of the sequences below, state its apparent KD of MS2 coat protein.
Remember to follow the number with its unit.

Consider the sequence shown here: ACAUGAGACAUAGGAUAUCUUGUACCUACAUGUGACAUGAGGAUCACCCAUGUGGUAAGUAUGAGAGAGAAGGAUGAGAUAUGU [Equivalence 48 - Jieux - Same State NG 2] (Eterna round: R96, puzzle: Same State NG 2) What is its recorded apparent KD of MS2 coat protein?
17.5 nM

Consider the sequence shown here: UGGCUCAGACGAGGAUAUAUGUGAUCACAUGAGGAUCACCCAUGUCUCGAGCUUCGGCUCGAGACAUAGAAGGCGUCUGAGCCA [SSNG2/3-A2] (Eterna round: R96, puzzle: Same State NG 2) What is its recorded apparent KD of MS2 coat protein?
118 nM

Consider the sequence shown here: AGCUAUUAAUCAGGAUAUAGGGACAUGAGGAUCACCCAUGUAUACAUGAUGAAAUGUGGUCACCUCUAGAAGGGAUUACUAACA [SameState NG2 #42] (Eterna round: R96, puzzle: Same State NG 2) What is its recorded apparent KD of MS2 coat protein?
155 nM

Consider the sequence shown here: CAGAGCCCAUGGGCCUGACAUGAGGAUCACCCAUGUGGCUUUGAGGAUAUAAGCGGAAACACCGCUUAGAAGGCGAAGCCUAAC [Atxerati] (Eterna round: R96, puzzle: Same State NG 3) What is its recorded apparent KD of MS2 coat protein?
79.5 nM

Consider the sequence shown here: GCUCGUAUCACGACCGACAUGAGGAUCACCCAUGUAUGUUGGUAGGAUAUCUAUAUUAAGGAUAUAGAGAAGGGCCGAACGAGC [SameState NG3 #14] (Eterna round: R96, puzzle: Same State NG 3) What is its recorded apparent KD of MS2 coat protein?
23.5 nM

Consider the sequence shown here: UGGUACAUGGGAGGAUAUCUCAUGGAGACAUGAGGAUCACCCAUGUAGAUCGACGGUAACGUCGGAGAGAAGGCCCAUGUACCU [MOD JL SSNG1 3.70] (Eterna round: R96, puzzle: Same State NG 2) What is its recorded apparent KD of MS2 coat protein?
17.4 nM

Consider the sequence shown here: GCCGGCUGGUGAGGAUAUGGCGCCUUAUUGGUGCCAGAAGGCAUGUCAAUUGACAUGAGGAUCACCCAUGUGUUGUCGUUGGCG [salish99_SSNG1_r04_610] (Eterna round: R96, puzzle: Same State NG 1) What is its recorded apparent KD of MS2 coat protein?
695 nM

Consider the sequence shown here: GUUACAUGAGGAUCACCCAUGUAUGUGUGGGAGUAAGUGUCUUAGGAUAUCUGAUAUUUAAUUUAAGAGAAGGAAGAUUGUUGU [JMF's solution 29] (Eterna round: R96, puzzle: Same State NG 3) What is its recorded apparent KD of MS2 coat protein?
119 nM

Consider the sequence shown here: GUUACAUGAGGAUCACCCAUGUAUGUGUGGGAGUAAGUGUCUUAGGAUAUCUAGUAUUUAAUUGAAGAGAAGGAAGAUUGUUGU [JMF's solution 67] (Eterna round: R96, puzzle: Same State NG 3) What is its recorded apparent KD of MS2 coat protein?
109 nM

Consider the sequence shown here: AAUUAAGAUCAAGGAUAUCACGUCGAUUAGACGUGAGAAGGUGAUCCAUACAUGAGGAUCACCCAUGUAUAACAUGAAUUAAUU [SSNG1/8-B2] (Eterna round: R96, puzzle: Same State NG 1) What is its recorded apparent KD of MS2 coat protein?
395 nM

Consider the sequence shown here: UUAAUAAUGAUAGGAUAUACAUGAGGAAUUCUCGUAGAAGGAUCAUGACAUGAGGAUCACCCAUGUAACGCUCGGAAGAGCGUA [Mat - Same State NG 1 - JL mod - D38] (Eterna round: R96, puzzle: Same State NG 1) What is its recorded apparent KD of MS2 coat protein?
846 nM

Consider the sequence shown here: GCUCGAUGAAAGUCCUACAUGAGGAUCACCCAUGUACGUGGGCAGGAUAUCUACAUGCAGAGUGUAGAGAAGGGCCCAUCGAGC [SameState NG3 #60] (Eterna round: R96, puzzle: Same State NG 3) What is its recorded apparent KD of MS2 coat protein?
18.6 nM

Consider the sequence shown here: AUAACACUGGCAGGAUAUGGGAAAGGAAGUGUACCAGAAGGGCCAGAACGGCGAUGGACAUGAGGAUCACCCAUGUCUUAGCCU [PowerStrip SSNG 1.4] (Eterna round: R96, puzzle: Same State NG 1) What is its recorded apparent KD of MS2 coat protein?
12.7 nM

Consider the sequence shown here: GGAGCCGGCACCGAGGAUAUUCAUAUUAAAACAUGAGGAUCACCCAUGUAGGCCAGAAGGCUUUGGGAGAAGGCGGAUCGGCUCG [Xeonanis - 3] (Eterna round: R96, puzzle: Same State 2) What is its recorded apparent KD of MS2 coat protein?
22.1 nM

Consider the sequence shown here: GAGUAGUUGAAAGGAUAUUGAUUAUUGUAGGAUCAAGAAGGUUUUAACAUGAGGAUCACCCAUGUAGGACUAUAAAUGUGAAAA [Parity 94 - Jieux - Same State NG 1] (Eterna round: R96, puzzle: Same State NG 1) What is its recorded apparent KD of MS2 coat protein?
12.2 nM

Consider the sequence shown here: ACAUAGGUUUCAGGAUAUGGGUAAAUUCCCUACAUGAGGAUCACCCAUGUCCGUAGGGAUAACAUCCAGAAGGGAAGCCACAUA [MOD3 Eternabot Solution 1 (Score 87.5)] (Eterna round: R96, puzzle: Same State NG 2) What is its recorded apparent KD of MS2 coat protein?
175 nM

Consider the sequence shown here: GCUGCGUUUAACGCCUACAUGAGGAUCACCCAUGUAUGUAGGCAGGAUAUCGUUUGCUUUGCAAACGAGAAGGGCUGUAGUAGC [salish99_SSNG3_R04_005] (Eterna round: R96, puzzle: Same State NG 3) What is its recorded apparent KD of MS2 coat protein?
41.6 nM

----------
- Tested on: K4 kissing-loop RNA reporter;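 also: bound reporter read as fluorescence of individual clusters on recovered sequencing chips by microscopy, with normalized cluster intensities fitted with a binding model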
- MEASUREMENT_PROTOCOL: apparent KD of K4 kissing-loop reporter; higher = weaker reporter binding
- ASSAY_CONTEXT: Eterna round: R107; input ligand: FMN 200 uM
MEASURE: apparent KD of K4 kissing-loop reporter (nM)
Supply the numeric figure in nM, leaving out any unit text.

Consider the sequence shown here: `CCUCACGUAGGACUAGUGAUGUUAGACUACCGAGGACCGGUACGGCCGCCACUCGUCGUACAAGAUAACCUUCCGCCAGUAUACA` What is its recorded apparent KD of K4 kissing-loop reporter?
113

Consider the sequence shown here: AGCCUUACAUCGGCCGCCACUUCCCUGGCAGUGAUGUUGCCGUAGACAAUCAUUCUACCCUGGAGAAGGACCGGGAUGCAGAAAC [theeternabot_sameState_KL_Trp_B_8] What is its recorded apparent KD of K4 kissing-loop reporter?
154

Consider the sequence shown here: AUAGGCAUAGCCCGAGUGAUGUUCGACGAUACCAGCCUCGAUAGAGGCCCUUGGCAGCGUAAAUGAUCAUGAAGCCAAGGAAUUA [whbob_Ex_Theo_A_th70] What is its recorded apparent KD of K4 kissing-loop reporter?
360

Consider the sequence shown here: AUGUCUAAUACGGCCGCCACUCGAGCAGUGAUGUUGCUCAGUAAUGGUCAUCGUCGUACAUGCCCGAGGACCGGGUAUUGAUUUG [Remain] What is its recorded apparent KD of K4 kissing-loop reporter?
147

Consider the sequence shown here: AGAUGGAAUAGAAGGAGCGGCGCCAGUGAUGUUGGAUGCCGCGGGUGAAUCAGAUCAUAGUGCCAGGUAGGUCGCUAUUUCAGCG [Anedin] What is its recorded apparent KD of K4 kissing-loop reporter?
113

Consider the sequence shown here: UUUAUGAUGUCGGCCGCCACUGGAUUAAUAUGUGUGUAAUCUAGUUCUGAGUGAUGUUUAGAGUCCAGGACCGGGACAUUUGUUA [#11 K4 Tryptophan B Exclusion] What is its recorded apparent KD of K4 kissing-loop reporter?
542
